Values compiled from patent US11939361B2.

procedureSummary: clinical
assayConditions: human, in vivo
assayEndpoint: half-life

Entry CC(=O)NCCCC[C@@H]1NC(=O)[C@H](Cc2c[nH]c3c(C)cccc23)NC(=O)[C@H]([C@@H](C)O)NC(=O)[C@H](CC(N)=O)NC(=O)[C@@H](NC(C)=O)C(C)(C)SSC(C)(C)[C@@H](C(=O)N[C@@H](Cc2ccc(OCCN)cc2)C(=O)N[C@@H](Cc2ccc3ccccc3c2)C(=O)NC2(C(=O)N[C@@H](CCC(=O)O)C(=O)N[C@@H](CC(N)=O)C(=O)N[C@@H](Cc3cccnc3)C(=O)N(C)CC(N)=O)CCOCC2)NC1=O has what half-life?
10 to 12 h

---

procedureSummary: Rat PK Study 1: intraduodenal/intracolonic dosing with absorption enhancers
Format: in vivo, Sprague Dawley rats
assayConditions: male, Sprague Dawley, plasma, other: intraduodenal, 10 mg/kg, ID dose 10 mg/kg, NaC10 100 mg/kg
assayEndpoint: Cmax (ng/mL)
Answers are plain numbers, in ng/mL.

Entry CC(=O)NCCCC[C@@H]1NC(=O)[C@H](Cc2c[nH]c3c(C)cccc23)NC(=O)[C@H]([C@@H](C)O)NC(=O)[C@H](CC(N)=O)NC(=O)[C@@H](NC(C)=O)C(C)(C)SSC(C)(C)[C@@H](C(=O)N[C@@H](Cc2ccc(OCCN)cc2)C(=O)N[C@@H](Cc2ccc3ccccc3c2)C(=O)NC2(C(=O)N[C@@H](CCC(=O)O)C(=O)N[C@@H](CC(N)=O)C(=O)N[C@@H](Cc3cccnc3)C(=O)N(C)CC(N)=O)CCOCC2)NC1=O [SEQ ID NO: 1] has what Cmax?
1220

---

procedureSummary: Colon and colonic content concentrations in rat TNBS colitis model (LC-MS/MS)
Type: in vivo, Sprague Dawley rats
assayConditions: Sprague Dawley, colon content, po, 0.33 mg/kg, Study 3, 0.33 mg/kg TID oral, total daily dose 1 mg/kg, read-out: Mean concentration in Colon content
assayEndpoint: tissue level at time at 168 h (ng/g)
Numbers only, in ng/g.

Entry CC(=O)NCCCC[C@@H]1NC(=O)[C@H](Cc2c[nH]c3c(C)cccc23)NC(=O)[C@H]([C@@H](C)O)NC(=O)[C@H](CC(N)=O)NC(=O)[C@@H](NC(C)=O)C(C)(C)SSC(C)(C)[C@@H](C(=O)N[C@@H](Cc2ccc(OCCN)cc2)C(=O)N[C@@H](Cc2ccc3ccccc3c2)C(=O)NC2(C(=O)N[C@@H](CCC(=O)O)C(=O)N[C@@H](CC(N)=O)C(=O)N[C@@H](Cc3cccnc3)C(=O)N(C)CC(N)=O)CCOCC2)NC1=O has what tissue level at time at 168 h?
6050

---

procedureSummary: Rat PK Study 1: intraduodenal/intracolonic dosing with absorption enhancers
Assay type: in vivo, Sprague Dawley rats
assayConditions: male, Sprague Dawley, plasma, other: intracolonic, 10 mg/kg, IC dose 10 mg/kg, SNAC 100 mg/kg
assayEndpoint: AUC(0-inf) (ng·h/mL)
Give bare numbers, in ng·h/mL.

Entry CC(=O)NCCCC[C@@H]1NC(=O)[C@H](Cc2c[nH]c3c(C)cccc23)NC(=O)[C@H]([C@@H](C)O)NC(=O)[C@H](CC(N)=O)NC(=O)[C@@H](NC(C)=O)C(C)(C)SSC(C)(C)[C@@H](C(=O)N[C@@H](Cc2ccc(OCCN)cc2)C(=O)N[C@@H](Cc2ccc3ccccc3c2)C(=O)NC2(C(=O)N[C@@H](CCC(=O)O)C(=O)N[C@@H](CC(N)=O)C(=O)N[C@@H](Cc3cccnc3)C(=O)N(C)CC(N)=O)CCOCC2)NC1=O [SEQ ID NO: 1] has what AUC(0-inf)?
312
